- Tested on: SW480
- experiment_description: Cytotoxicity against human SW480 cells assessed as reduction in cell viability measured after 48 hrs by MTT assay
- Assay type: functional, cell-based
- applied_conditions: SW480, 48 h
pIC50: −log10 of the molar value.
Quick list: pIC50 per entry.

molecule: CC(=O)O[C@H]1C[C@H]2[C@H]([C@@H]3[C@@H](O)[C@@H]4[C@H]([C@H](C)C=C5OC(=O)C(C)(O)[C@@]54C)[C@]31C)[C@@H](O)C(=O)[C@H]1C[C@@H]3O[C@H]3[C@H](OC(=O)CC(C)C)[C@@]12C (stereo not given in full)
pIC50: < 5.00

molecule: CC(=O)O[C@@H]1[C@H]2[C@H]3[C@H]([C@H](O)[C@H](OC(C)=O)[C@]2(C)[C@H]2[C@H](C)[C@H](OC(C)=O)[C@@H]4OC(=O)C(C)(O)[C@]4(C)[C@H]12)[C@]1(C)[C@H](C[C@@H]2O[C@H]2[C@@H]1OC(C)=O)C(=O)[C@@H]3O (stereo not given in full)
pIC50: < 5.00

molecule: CC(=O)O[C@H]1[C@H]2[C@H]([C@@H]3[C@H]4OC(C)(O)[C@]5(C)[C@H]4[C@H]([C@H](C)C(=O)[C@H]5O)[C@@]3(C)[C@H]1OC(C)=O)[C@@H](OC(C)=O)C(=O)[C@H]1C[C@@H]3O[C@H]3[C@H](OC(C)=O)[C@]21C (stereo not given in full)
pIC50: < 5.00

molecule: CC(=O)O[C@@H]1[C@H]2[C@@H]3[C@@H](OC(C)=O)C(=O)[C@@]4(O)C[C@@H]5O[C@H]5[C@H](OC(=O)CC(C)C)[C@]4(C)[C@H]3C[C@H](OC(C)=O)[C@]2(C)[C@@H]2[C@@H]1[C@]1(C)C(=C[C@H]2C)OC(=O)C1(C)O (stereo not given in full)
pIC50: < 5.00

molecule: CC(=O)O[C@H]1C(=O)[C@@]2(C)[C@H]([C@H](OC(=O)c3ccccc3)[C@]3(O)C[C@H](OC(=O)[C@H](O)[C@@H](NC(=O)c4ccccc4)c4ccccc4)C(C)=C1C3(C)C)[C@]1(OC(C)=O)CO[C@@H]1C[C@@H]2O
pIC50: > 8.10

###

- System: A549
- experiment_description: Cytotoxicity against human A549 cells assessed as reduction in cell viability measured after 48 hrs by MTT assay
- Format: functional, cell-based
- applied_conditions: A549, 48 h
Quick list: IC50 per entry.

molecule: CC(=O)O[C@H]1C(=O)[C@@]2(C)[C@H]([C@H](OC(=O)c3ccccc3)[C@]3(O)C[C@H](OC(=O)[C@H](O)[C@@H](NC(=O)c4ccccc4)c4ccccc4)C(C)=C1C3(C)C)[C@]1(OC(C)=O)CO[C@@H]1C[C@@H]2O
relation: <
IC50 [µM]: 0.008
//
molecule: CC(=O)O[C@H]1C[C@H]2[C@H]([C@@H]3[C@@H](O)[C@@H]4[C@H]([C@H](C)C=C5OC(=O)C(C)(O)[C@@]54C)[C@]31C)[C@@H](O)C(=O)[C@H]1C[C@@H]3O[C@H]3[C@H](OC(=O)CC(C)C)[C@@]12C (stereo not given in full)
relation: =
IC50 [µM]: 2.8
//
molecule: CC(=O)O[C@@H]1[C@H]2[C@@H]3[C@@H](OC(C)=O)C(=O)[C@@]4(O)C[C@@H]5O[C@H]5[C@H](OC(=O)CC(C)C)[C@]4(C)[C@H]3C[C@H](OC(C)=O)[C@]2(C)[C@@H]2[C@@H]1[C@]1(C)C(=C[C@H]2C)OC(=O)C1(C)O (stereo not given in full)
relation: =
IC50 [µM]: 8.3
//
molecule: CC(=O)O[C@@H]1[C@H]2[C@H]3[C@H]([C@H](O)[C@H](OC(C)=O)[C@]2(C)[C@H]2[C@H](C)[C@H](OC(C)=O)[C@@H]4OC(=O)C(C)(O)[C@]4(C)[C@H]12)[C@]1(C)[C@H](C[C@@H]2O[C@H]2[C@@H]1OC(C)=O)C(=O)[C@@H]3O (stereo not given in full)
relation: =
IC50 [µM]: 7.3
//
molecule: CC(=O)O[C@H]1[C@H]2[C@H]([C@@H]3[C@H]4OC(C)(O)[C@]5(C)[C@H]4[C@H]([C@H](C)C(=O)[C@H]5O)[C@@]3(C)[C@H]1OC(C)=O)[C@@H](OC(C)=O)C(=O)[C@H]1C[C@@H]3O[C@H]3[C@H](OC(C)=O)[C@]21C (stereo not given in full)
relation: =
IC50 [µM]: 7.5
